Consider the following compounds and their measured growth readings.
System: SK-MEL-28 melanoma
protocol.notes: NCI-60 one-dose screen, 48 h (100 = growth as untreated, 0 = no growth, -100 = all killed)
measurement.conditions: 10 µM
The panel holds about 83,000 compounds, 20% with a hit somewhere; the sample as a whole holds those more often.
State the answer as a number, implicitly in %.

// below: answered compounds
molecule.smiles: O=C(/C=C/c1ccco1)c1nc2ccccc2n1Cc1ccc(Br)cc1
growth, %: 56.2
//
molecule.smiles: C[C@H]1[C@@H](Oc2ccc(-c3cn(-c4ccnc5cc(Cl)ccc45)nn3)cc2)O[C@@H]2OC3(C)CC[C@H]4[C@H](C)CC[C@@H]1[C@@]24OO3
growth, %: 33.3
//
molecule.smiles: CC1=C2C(=C[C@@](C)(COP(=O)(Oc3ccccc3)Oc3ccccc3)[C@@H]2O)C(=O)[C@@](C)(O)C12CC2
growth, %: -88.1
//
molecule.smiles: COC(=O)C[C@](O)(CCC(C)C)C(=O)O[C@H]1C(OC)=C[C@@]23CCCN2CCc2cc4c(cc2[C@@H]13)OCO4
growth, %: -32.9
//
molecule.smiles: CN(C)CCc1cn(C2CCC2)c2cccc(O)c12
growth, %: 3.47

Prompt: Find the recorded growth belonging to C=CCN=C([Se])NC(=O)c1ccc2c(c1)OCO2 and report it.
Completion: 111

Prompt: # iterate: COc1ccc2cc([C@H](C)C(=O)[Se]CCC#N)ccc2c1
Completion: -37.9

Prompt: # iterate: CC(C)C[C@H](NC(=O)CNC(=O)C[C@H]1O[C@@H]2OC3(C)CC[C@H]4[C@H](C)CC[C@@H]([C@H]1C)[C@@]24OO3)B(O)O
Completion: -38.5
